Listed next: entries and their corresponding log10 of IC50.
# TESTED TARGET: PARG (Homo sapiens, UniProt Q86W56)
# Sequence (Q86W56 whole entry): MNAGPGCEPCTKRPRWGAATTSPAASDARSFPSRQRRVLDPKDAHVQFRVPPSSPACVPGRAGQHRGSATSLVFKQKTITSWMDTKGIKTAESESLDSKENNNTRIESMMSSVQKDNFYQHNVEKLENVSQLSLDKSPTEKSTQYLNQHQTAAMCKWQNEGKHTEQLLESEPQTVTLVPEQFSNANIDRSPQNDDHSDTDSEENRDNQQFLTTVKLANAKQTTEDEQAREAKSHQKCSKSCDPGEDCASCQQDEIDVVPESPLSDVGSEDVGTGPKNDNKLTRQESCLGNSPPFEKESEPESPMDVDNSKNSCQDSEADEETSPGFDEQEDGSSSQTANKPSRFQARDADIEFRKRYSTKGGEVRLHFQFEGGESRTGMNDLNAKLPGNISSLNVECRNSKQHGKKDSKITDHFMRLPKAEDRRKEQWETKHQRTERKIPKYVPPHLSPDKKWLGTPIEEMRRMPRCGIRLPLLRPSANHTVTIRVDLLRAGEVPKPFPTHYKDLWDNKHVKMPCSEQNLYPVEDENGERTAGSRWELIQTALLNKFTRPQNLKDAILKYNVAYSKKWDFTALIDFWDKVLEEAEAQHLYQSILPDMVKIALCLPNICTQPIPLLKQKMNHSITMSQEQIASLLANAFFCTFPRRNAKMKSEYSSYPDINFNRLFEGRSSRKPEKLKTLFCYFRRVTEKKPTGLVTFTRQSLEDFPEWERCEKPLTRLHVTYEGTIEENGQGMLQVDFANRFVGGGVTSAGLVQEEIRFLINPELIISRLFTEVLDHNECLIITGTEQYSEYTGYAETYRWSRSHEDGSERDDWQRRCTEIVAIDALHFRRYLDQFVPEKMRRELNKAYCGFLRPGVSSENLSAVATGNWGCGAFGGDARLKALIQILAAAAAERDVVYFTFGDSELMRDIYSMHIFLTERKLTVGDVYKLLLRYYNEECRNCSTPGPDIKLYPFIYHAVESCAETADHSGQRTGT
# METHOD SUMMARY: Biochemical assay (PARG, TFMU-ADPr substrate)
# STATED CONDITIONS: PARG, TFMU-ADPr substrate
Quick note: numbers are log10 of IC50, with nM as the unit.

Please review the entries below; each comes with its answer.
CC1(NS(=O)(=O)c2cc(N3CCN(C(=O)c4ccncc4)CC3)c3cnc(-c4nnc(C(F)F)s4)n3c2)CC1 :: -0.32
CNC1(C(=O)N2CCN(c3cc(S(=O)(=O)NC4(C)CC4)cn4c(-c5nnc(C(F)(F)F)s5)ncc34)CC2)CC1 :: 0.26
CN1CC(Nc2cc(S(=O)(=O)NC3(C#N)CC3)cn3c(-c4nnc(C(F)F)s4)ncc23)C1 :: 0.92
CN1CC[C@H]1C(=O)N1CCN(c2cc(S(=O)(=O)NC3(C)CC3)cn3c(-c4nnc(C(F)(F)F)s4)ncc23)CC1 :: 1.30
C[C@H]1CN(c2cc(S(=O)(=O)NC3(C)COC3)cn3c(-c4nnc(C(F)(F)F)s4)ncc23)C[C@H](C)N1 :: 0.06
CC1(C(=O)N2CC3CCC2CN3c2cc(S(=O)(=O)NC3(C#N)CC3)cn3c(-c4nnc(C(F)F)s4)ncc23)CC1 (stereo not shown) :: 1.44

Enter reported log10 of IC50 observed with PARG (Homo sapiens, UniProt Q86W56) for Cc1c(-c2cc(S(=O)(=O)NC3(C#N)CC3)cn3c(-c4nnc(C(F)F)s4)ncc23)cnn1C(C)C
1.08

Enter reported log10 of IC50 observed with PARG (Homo sapiens, UniProt Q86W56) for CC1(C(=O)N2CCN(c3cc(S(=O)(=O)NC4(C#N)CC4)cn4c(-c5nnc(C(F)F)s5)ncc34)CC2(C)C)CC1
2.00

Enter reported log10 of IC50 observed with PARG (Homo sapiens, UniProt Q86W56) for C[C@H]1CN(c2cc(S(=O)(=O)NC3(C)COC3)cn3c(-c4nnc(C(F)F)s4)nc(Cl)c23)C[C@H](CO)O1
1.12

Enter reported log10 of IC50 observed with PARG (Homo sapiens, UniProt Q86W56) for CC(=O)N1CCN(c2cc(S(=O)(=O)NC3(C#N)CC3)cn3c(-c4nnc(C(F)(F)F)s4)ncc23)C[C@H]1C
1.50

Enter reported log10 of IC50 observed with PARG (Homo sapiens, UniProt Q86W56) for C[C@@H]1CN(c2cc(S(=O)(=O)NC3(C)CC3)cn3c(-c4nnc(C(F)(F)F)s4)ncc23)CCN1C(=O)[C@H]1CCN1C
0.79

Enter reported log10 of IC50 observed with PARG (Homo sapiens, UniProt Q86W56) for CC1(NS(=O)(=O)c2cc(N3CCN[C@H](CF)C3)c3cnc(-c4nnc(C(F)F)s4)n3c2)COC1
1.51
